Experimental Protocol: qHTS RealTime-Glo MT Cell Viability Assay in HEK293 cells - 24 hour (AID 1224886); note: top concentration of the series differs between compounds; nearly all actives have a fitted effect of over 50% in size
Setup Conditions: RealTime-Glo luminescence; series mostly up to 76.8 µM
Inconclusive results are not listed. Active and inactive are the calls of the source. Calls come from the whole dose curve; as a rule, active = well fitted cell-killing curve with a large enough effect in the repeat runs; inconclusive = weak or mixed curves, or effect the other way; inactive = flat fitted curve, though single readings scatter.
Observed Property: outcome

C[C@](N)(Cc1ccc(O)c(O)c1)C(=O)O = inactive
O=C1NC(=O)C(c2ccccc2)(c2ccccc2)N1 = inactive
CC(C)c1c(C(=O)Nc2ccccc2)c(-c2ccccc2)c(-c2ccc(F)cc2)n1CC[C@@H](O)C[C@@H](O)CC(=O)O = inactive

---

Experimental Protocol: qHTS assay for small molecule agonists of the p53 signaling pathway - cell viability (AID 651633); note: nearly all actives have a fitted effect of over 30% in size
Setup Conditions: p53RE-bla HCT-116 viability, ATP luminescence, 16 h; series mostly up to 83.3 µM
Inconclusive results are not listed. The source made the active and inactive calls. Calls come from the whole dose curve.
Parameter call: string, one of active, inactive

CC/C(=C(\c1ccccc1)c1ccc(OCCN(C)C)cc1)c1ccccc1 = active
NC(=O)c1cccnc1 = inactive

Continue with the compound presented below.
# fetch the recorded call for C=C(C)C(=O)OCC(C)O (stereo not drawn) here
inactive
